Molecular target: T1, MLLT4 PDZ (human, UniProt P55196 1002-1095)
T1 construct: PDZ domain of human MLLT4 (Afadin); the residues named in the structure (1014-1022, 1071) fit 1002-1095; also called Afadin PDZ; not shown: His tag, N-terminal, cleaved; MBP, N-terminal, cleaved
T1 sequence (looked up): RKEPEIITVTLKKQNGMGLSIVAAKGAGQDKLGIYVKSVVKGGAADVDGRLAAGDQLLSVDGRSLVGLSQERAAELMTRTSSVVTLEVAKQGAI
Assay: MST; […]; PBS tween 20 0.05%; room temperature; […]; duplicate
Conditions: both partners purified
readout: pKd
Recall that pKd is obtained by taking minus log10 of the concentration measured in molar.

Q. Provide pKd value for the following binder: NLNSSRVPDLLV (also called SARS-CoV-2 WT; SARS-CoV-2 peptide E) [C-terminal SARS-CoV-2-E PBM peptide]
A. 3.24
